Source of measurements: ChEMBL document CHEMBL1152729

Reported values of pIC50 for individual entries
System: SUP-T1
Test: Cytotoxicity against human SupT1 cells after 24 hrs by CellTiter-Blue assay
Type: functional, cell-based
Details: Homo sapiens, SUP-T1, 24 h
As a rule, pIC50 stands for the negative log10 of the concentration, concentration in M.

{"columns": ["inputSmiles", "pIC50"],
 "data": [
  ["CCCCCC(=O)N[C@@H](CO)[C@H](O)/C=C/CC(CC(C)C)CC(C)C", 4.28],
  ["CCCCCCCCCC/C=C/[C@@H](O)[C@H](CO)NC(=O)CC(CC(C)C)CC(C)C", 4.54],
  ["CCCCCCCCCCCC[C@@H](O)[C@H](CO)NC(=O)CC(CC(C)C)CC(C)C", 4.12],
  ["CCCCCCCCCCCCC/C=C/[C@@H](O)[C@H](CO)NC(=O)CCCCC", 4.32]
]}

Could you share what pIC50 was measured for "CCCCCCCCCCC(=O)N[C@@H](CO)[C@H](O)/C=C/CC(CC(C)C)CC(C)C" , tested on SUP-T1?
4.81
